Molecular target: Fibroblast growth factor receptor 2 (Homo sapiens)
Conditions: Compound concentration 20.0 uM
Description: Thermal Shift Assay. Domain: start/stop: T457-E768
Residues, ends and D or L forms follow the SMILES beside them.
Exam item: assign TRUE to entries whose ΔTm is below 0.1 °C and FALSE to entries at or above 0.1 °C. Note that a value of exactly 0.1 °C receives FALSE.

CN(C(=O)CCCOc1ccc2[nH]c(=O)ccc2c1)C1CCCCC1 | TRUE
O=C(N1CCCC[C@@H]1Cc1ccccc1)n1cc(-c2ccc(-c3ccccc3)cc2)nn1 | TRUE
N=C(N)NC(=O)c1cnn(-c2cccc3ncccc23)c1C1CC1 | TRUE
CC(=O)N[C@@H](CC(C)C)C(=O)N[C@@H](CCC(=O)O)C(=O)N[C@@H](Cc1cnc[nH]1)C(=O)N[C@H](C=O)CC(=O)O (Ac-LEHD-aldehyde) | FALSE
Nc1cccc(CNC(=O)c2ccc(Oc3ccc(OCc4cccc(F)c4)cc3)nc2)c1 | TRUE
Cc1ccc(C(=O)Nc2ccc(S(=O)(=O)O)c3cc(S(=O)(=O)O)cc(S(=O)(=O)O)c23)cc1NC(=O)c1cccc(NC(=O)Nc2cccc(C(=O)Nc3cc(C(=O)Nc4ccc(S(=O)(=O)O)c5cc(S(=O)(=O)O)cc(S(=O)(=O)O)c45)ccc3C)c2)c1 | TRUE
O=C(CCCCCCNC(=O)c1cnc(N(c2ccccc2)c2ccccc2)nc1)NO | TRUE
O=C1Cc2cc(C(=O)N[C@@H]3C[C@H]4CC[C@@H](C3)N4S(=O)(=O)CC3CCN(CCCC(F)(F)F)CC3)c(Cl)cc2N1 | TRUE
Cc1ccc2c(c1)nc(/C=C/c1cccc3cccnc13)n2-c1cccc(OCCCN2CCN(C)CC2)c1 | FALSE
CCN(CCN(C)C)C(=O)CNCc1cc(C(N)=O)ccn1 | FALSE

## Input Determine whether this molecule shows ΔTm lower than 0.1 °C (ties excluded): N#Cc1c(N)[nH]c2cc(/C=C/c3cccc(F)c3)ccc12
## Output FALSE

## Input Determine whether this molecule shows ΔTm lower than 0.1 °C (ties excluded): Cc1cc(/N=N/c2ccc(S(=O)(=O)NC3CCCC3)cc2)c(N)cc1O
## Output FALSE

## Input Determine whether this molecule shows ΔTm lower than 0.1 °C (ties excluded): CC1C(C#N)=C(N)OC2=C1C(=O)CC(c1cccc3ccccc13)C2 (stereo not given)
## Output TRUE

## Input Determine whether this molecule shows ΔTm lower than 0.1 °C (ties excluded): Cc1cc2cc(NS(=O)(=O)c3ccc(C#N)cc3)ccc2n(C)c1=O
## Output FALSE

## Input Determine whether this molecule shows ΔTm lower than 0.1 °C (ties excluded): CC#CCn1c(N2CCC[C@@H](N)C2)nc2c1c(=O)n(Cc1nc(C)c3ccccc3n1)c(=O)n2C
## Output FALSE

## Input Determine whether this molecule shows ΔTm lower than 0.1 °C (ties excluded): O=C(CNC(=O)[C@H](COP(=O)(O)O)NC(=O)CCc1c[nH]c2ccccc12)NCCCCc1ccccc1
## Output FALSE

## Input Determine whether this molecule shows ΔTm lower than 0.1 °C (ties excluded): Fc1ccc(C(OCCN2CCN(CCCc3ccccc3)CC2)c2ccc(F)cc2)cc1
## Output TRUE

## Input Determine whether this molecule shows ΔTm lower than 0.1 °C (ties excluded): COc1cn(-c2ccc(-n3cccn3)cc2F)nc(-c2ccnn2-c2ccccc2)c1=O
## Output FALSE

## Input Determine whether this molecule shows ΔTm lower than 0.1 °C (ties excluded): CCCCNc1cc(C(=O)O)cc(S(N)(=O)=O)c1Oc1ccccc1
## Output TRUE

###

Target: Fibroblast growth factor receptor 2 (Homo sapiens) (UniProt P21802)
Sequence (P21802 22-821 limits assumed): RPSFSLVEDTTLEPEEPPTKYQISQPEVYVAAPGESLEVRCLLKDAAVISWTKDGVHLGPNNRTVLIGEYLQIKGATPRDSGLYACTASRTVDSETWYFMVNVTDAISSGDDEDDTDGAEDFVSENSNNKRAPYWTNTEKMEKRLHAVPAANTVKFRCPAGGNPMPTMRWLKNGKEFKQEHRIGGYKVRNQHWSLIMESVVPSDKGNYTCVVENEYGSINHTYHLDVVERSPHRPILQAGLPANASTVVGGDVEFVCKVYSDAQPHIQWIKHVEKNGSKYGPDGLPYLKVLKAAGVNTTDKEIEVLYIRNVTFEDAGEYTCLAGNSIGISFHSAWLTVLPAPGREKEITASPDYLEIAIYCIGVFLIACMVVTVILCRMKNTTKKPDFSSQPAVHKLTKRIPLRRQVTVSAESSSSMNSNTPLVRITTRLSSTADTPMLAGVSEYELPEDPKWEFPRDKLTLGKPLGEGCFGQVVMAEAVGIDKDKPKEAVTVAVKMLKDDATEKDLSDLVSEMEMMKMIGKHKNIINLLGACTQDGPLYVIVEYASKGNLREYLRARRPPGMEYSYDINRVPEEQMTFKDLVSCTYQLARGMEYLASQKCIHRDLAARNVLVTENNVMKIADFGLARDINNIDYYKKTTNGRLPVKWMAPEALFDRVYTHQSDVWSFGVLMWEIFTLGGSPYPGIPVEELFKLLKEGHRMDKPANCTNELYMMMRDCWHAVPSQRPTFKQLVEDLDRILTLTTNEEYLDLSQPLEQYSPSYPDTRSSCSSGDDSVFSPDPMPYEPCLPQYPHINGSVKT
Details: Compound concentration 20.0 uM
Residues, ends and D or L forms follow the SMILES beside them. *: point of attachment. Boc = CC(C)(C)OC(=O)*
attribute measured: ΔTm (°C)
Numbers only, in °C.

CCCC(NC(=O)C(CC(C)C)NC(=O)OCc1ccccc1)C(=O)C(=O)NCc1ccccn1 (racemic) | 0.15
N#Cc1ccc(-c2csc(NN=C3CCCC3)n2)cc1 | 0.36
CNC(=O)O[C@H]1COc2ccc(N3CCN(C4COC4)CC3)cc2[C@@H]1NC(=O)c1ccc(F)cc1 | 0.9
O=C(NCc1ccc(F)cc1)C1CCN(S(=O)(=O)c2cc(Cl)cc(Cl)c2)CC1 | 0.75
COc1cc2c(NC3CCN(C)CC3)cc(-c3ccc(C)o3)nc2cc1OCCCN1CCCC1 | 0.85

I'm hoping you can list ΔTm for every compound here, please.
1. C[C@@H](Oc1ccc(S(C)(=O)=O)cc1C(=O)N1C[C@@H]2C[C@]2(c2cc(C(F)(F)F)on2)C1)C(F)(F)F
2. NC(=O)C1CN(CCCCC(c2ccc(F)cc2)c2ccc(F)cc2)CCN1CC(=O)Nc1c(Cl)cc(N)cc1Cl (stereo not drawn)
3. CC(=O)N[C@@H](CC(=O)O)C(=O)N[C@@H](CC(N)=O)C(=O)N[C@@H](CC(C)C)C(=O)N[C@H](C=O)CC(=O)O
4. O=c1[nH]c(Oc2cnn(Cc3ccccc3)c2)nc2cnccc12

## Output
1. -0.81
2. -9.38
3. 0.44
4. -0.24

I'm hoping you can list ΔTm for every compound here, please.
1. Cc1ncsc1-c1ccc(CNC(=O)[C@@H]2C[C@@H](O)CN2C(=O)[C@@H](NC(=O)COCCOCCOc2ccc(-c3ccc4ncnc(Nc5ccc(OCc6cccc(F)c6)c(Cl)c5)c4c3)cc2)C(C)(C)C)cc1
2. CNc1ncc2cc(-c3cc(NC(=O)NCCC(C)(C)C)c(F)cc3C)c(C)nc2n1
3. CC(C)[C@H](NC(=O)[C@H](CCC(=O)O)NC(=O)[C@H](C)NC(=O)OC(C)(C)C)C(=O)N[C@H](C=O)CC(=O)O (Boc-AEVD-aldehyde)

## Output
-3.99
5.58
0.45

## Input Specify measured ΔTm for Cc1cccc(N/N=C(\C(=O)c2cccs2)C(=O)C(F)(F)F)c1 .
## Output -0.22

###

Target: Peregrin (Homo sapiens)
Details: Compound concentration 20.0 uM
Please go through the items and note down their ΔTm.
Give bare numbers, in °C.

Reference set (6 entries):
O=C(O)C1CCCN(CCC=C(c2ccccc2)c2ccccc2)C1 (centres undefined) | 0.59
Cc1ncsc1-c1ccc([C@H](C)NC(=O)[C@@H]2C[C@@H](O)CN2C(=O)[C@@H](NC(=O)COCCCOCCNC(=O)C[C@@H]2N=C(c3ccc(Cl)cc3)c3c(sc(C)c3C)-n3c(C)nnc32)C(C)(C)C)cc1 | -1.73
O=C(c1ccc2c(ccn2-c2ccc(F)cc2)c1)N1CC(N2CCN(C(=O)c3nccs3)CC2)C1 | -2.53
CN(Cc1ccccc1)c1ccc2cc(C(=O)O)c(=O)oc2c1 | 0.71
O=C(NCc1ncccc1F)c1coc(CCNCCc2nc3ccccc3[nH]2)n1 | -1.77
CC(C)(C)c1ccc(CN(C(=O)CN(Cc2c(F)c(F)c(F)c(F)c2F)S(=O)(=O)c2ccc(F)cc2)c2ccc(C(=O)NO)cc2)cc1 | -3.76

I'm hoping you can list ΔTm for every compound here, please.
1. O=C(N1CCCC[C@H]1Cc1ccccc1)n1cc(-c2ccc(-c3ccccc3)cc2)nn1
2. CC(=O)N[C@@H](C)C(=O)N[C@@H](CCC(=O)O)C(=O)N[C@H](C(=O)N[C@@H](C=O)CC(=O)O)C(C)C
3. Cc1cccc(N/N=C(\C(=O)c2cccs2)C(=O)C(F)(F)F)c1
4. N=C(N)NC(=O)c1cnn(-c2cccc3ncccc23)c1C1CC1
5. CC1(C)c2cccc(C(=O)NO)c2CN1c1cnc(C(F)(F)F)cn1
6. N[C@@H](CCNCc1ccc(Cl)cc1)C(=O)N1CCCCC1

## Output
1: 1; 2: -1.79; 3: 1.4; 4: -0.17; 5: 0.66; 6: 0.85

I'm hoping you can list ΔTm for every compound here, please.
1. Cc1cc(-c2ccc3nc(C4CCOCC4)n(CCOC(F)(F)F)c3c2)cn(C)c1=O
2. O=C(NO)c1cnc(NC2(c3ccccc3)CC2)nc1

## Output
1: 4.67; 2: -1.33

###

Target: Fibroblast growth factor receptor 2 (Homo sapiens) (UniProt P21802)
Conditions: Compound concentration 20.0 uM
Exam item: assign Met to entries whose ΔTm is below 0.1 °C and Not met to entries at or above 0.1 °C. Note that a value of exactly 0.1 °C receives Not met.

Worked examples follow.
CN(C)CCCNC(=O)c1ccc(-c2cc(O)c3ncccc3c2)cc1 | Not met
N[C@@H](CCNCc1ccc(Cl)cc1)C(=O)N1CCCCC1 | Met
COCc1nc(C(F)(F)F)[nH]c1-c1cc(C(=O)N2CC(c3ccc(C#N)cc3)C2)c(C)cc1C | Met
CCNC(=O)/C=C/c1cccc(Br)c1 | Met

## Input Determine whether this molecule shows ΔTm lower than 0.1 °C (ties excluded): O=C(CN1CCN(C(=O)c2ccco2)CC1)Nc1cc(C(F)(F)F)ccc1Cl
## Output Not met

## Input Determine whether this molecule shows ΔTm lower than 0.1 °C (ties excluded): Nc1nc(C(F)(F)F)nc2c1nnn2C[C@H]1CN(Cc2nccs2)CCO1
## Output Not met

## Input Determine whether this molecule shows ΔTm lower than 0.1 °C (ties excluded): CNCCC(Oc1ccccc1OC)c1ccccc1 (configuration not stated)
## Output Not met
